Every entry's value here was drawn from paper PMC8000592.

target: MMP2 (Homo sapiens, UniProt P08253)
Sequence (P08253 110-660): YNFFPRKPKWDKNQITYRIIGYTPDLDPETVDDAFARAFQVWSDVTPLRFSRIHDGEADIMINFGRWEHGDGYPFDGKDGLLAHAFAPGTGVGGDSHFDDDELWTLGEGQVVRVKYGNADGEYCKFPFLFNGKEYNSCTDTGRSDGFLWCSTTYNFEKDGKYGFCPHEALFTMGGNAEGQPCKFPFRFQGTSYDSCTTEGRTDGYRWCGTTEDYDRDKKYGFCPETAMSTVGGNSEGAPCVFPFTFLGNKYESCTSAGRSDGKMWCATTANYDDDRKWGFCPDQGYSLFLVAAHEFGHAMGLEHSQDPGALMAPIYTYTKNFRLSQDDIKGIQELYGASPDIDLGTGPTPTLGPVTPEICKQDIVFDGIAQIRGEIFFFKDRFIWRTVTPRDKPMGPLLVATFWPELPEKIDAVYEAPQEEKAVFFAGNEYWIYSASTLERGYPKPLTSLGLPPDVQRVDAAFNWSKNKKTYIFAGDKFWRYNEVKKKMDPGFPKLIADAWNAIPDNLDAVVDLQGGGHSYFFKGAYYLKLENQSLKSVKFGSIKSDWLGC
pIC50: −log10 of the molar value.
Each entry below lists one item and its recorded pIC50 value.

Some solved entries appear below for comparison.
Prompt line: Which pIC50 is reported with MMP2 (Homo sapiens, UniProt P08253) for this entry: O=C(c1ccc(C(=O)O)c([N+](=O)[O-])c1)c1ccc(C(=O)O)c([N+](=O)[O-])c1 [SR355996] ?
Response line: < 4.77

Prompt line: I'm curious: which pIC50 was measured for O=C(CSc1nnc(NC(=O)COc2ccccc2)s1)NO [Compound 19848] tested on MMP2 (Homo sapiens, UniProt P08253)?
Response line: < 4.77

---
Prompt line: Give pIC50 (MMP2 (Homo sapiens, UniProt P08253)) of the following molecule: COc1cc(OC)cc(C(=O)CNc2nnc(SCC(=O)NO)s2)c1 [Compound 19849]
Response line: < 4.77
